Numbers sourced from patent US9930890B2.

Quick reference for logp [b] among some compounds
- conditionLabel: pH 7.8

Take a look at these entries with their results.
compound	experimentalEndpoint	measurement
CON=Cc1cccc(F)c1C1CC(c2csc(C3CCN(C(=O)Cn4nc(C(F)(F)F)cc4C)CC3)n2)=NO1 (mixture of isomers) [I-118]	logp [b]	3.49[b]
Cc1cc(C(F)(F)F)nn1CC(=O)N1CCC(c2nc(C3=NOC(c4ccc(OS(=O)(=O)C5CC5)cc4)C3)cs2)CC1 (stereo not shown) [I-98]	logp [b]	3.13[b]
O=CNc1ccccc1C1CC(c2csc(C3CCN(C(=O)Cn4nc(C(F)F)cc4C(F)F)CC3)n2)=NO1 (stereo not shown) [I-108]	logp [b]	2.32[b]

Would you kindly share the measured logp [b] for Cc1ccc(C)c(NC(=O)N2CCC(c3nc(C4=NOC(c5ccccc5OS(C)(=O)=O)C4)cs3)CC2)c1 (stereo not shown) [I-74] ?
3.03[b]

Further, for Cc1ccc(C2CC(c3csc(C4CCN(C(=O)Cn5nc(C(F)F)cc5C(F)F)CC4)n3)=NO2)c(OCC#N)c1 (stereo not shown) [I-144] ?
3.13[b]

Further, for Cc1cc(C(F)(F)F)nn1CC(=O)N1CCC(c2nc(C3=NOC(c4cccc(F)c4OS(=O)(=O)C4CC4)C3)cs2)CC1 (stereo not shown) [I-114] ?
3.42[b]

Further, for N#CCOc1cccc(Cl)c1C1CC(c2csc(C3CCN(C(=O)Cn4nc(C(F)F)cc4C(F)F)CC3)n2)=NO1 (stereo not shown) [I-75] ?
3.11[b]

====

- Tested on: Plasmopara viticola
- methodNotes: Plasmopara test (grapevine)/protective
- Type: in vivo
- conditionLabel: grapevine young plants, protective spray, active ingredient concentration 10 ppm, evaluation 6 days after inoculation; 0% = control, 100% = no infection
experimentalEndpoint: Eff. % (%)
Please respond with the number in % and leave the unit unwritten.

Take a look at these entries with their results.
molecule	targetDesc	measurement
Cc1ccc(Cl)cc1NC(=O)N1CCC(c2nc(C3=NOC(c4cccc(C=NO)c4)C3)cs2)CC1 (mixture of isomers) [I-14]	Plasmopara viticola	100
CON=C(C)c1ccccc1C1CC(c2csc(C3CCN(C(=O)Cn4nc(C(F)(F)F)cc4C)CC3)n2)=NO1 (mixture of isomers) [I-31]	Plasmopara viticola	97
CON=Cc1ccccc1C1CC(c2csc(C3CCN(C(=O)Cn4nc(C(F)(F)F)cc4C)CC3)n2)=NO1 (mixture of isomers) [I-34]	Plasmopara viticola	87

Would you kindly share the measured Eff. % for O=CNc1ccccc1C1CC(c2csc(C3CCN(C(=O)Cn4nc(C(F)F)cc4C(F)F)CC3)n2)=NO1 (stereo not shown) [I-108] ?
93

Further, for N#CCN(C=O)c1ccccc1C1CC(c2csc(C3CCN(C(=O)Cn4nc(C(F)F)cc4C(F)F)CC3)n2)=NO1 (stereo not shown) [I-121] ?
98

Further, for CON=C(C)c1ccccc1C1CC(c2csc(C3CCN(C(=O)Cn4nc(C(F)F)cc4C(F)F)CC3)n2)=NO1 (mixture of isomers) [I-32] ?
85

Further, for CON=C(C)c1cccc(C2CC(c3csc(C4CCN(C(=O)Nc5cc(Cl)ccc5C)CC4)n3)=NO2)c1 (mixture of isomers) [I-23] ?
98

====

Quick reference for Eff. % among some molecules
- Test system: Plasmopara viticola
- methodNotes: Plasmopara test (grapevine)/protective
- Type: in vivo
- conditionLabel: grapevine young plants, protective spray, active ingredient concentration 10 ppm, evaluation 6 days after inoculation; 0% = control, 100% = no infection
Please respond with the number in % and leave the unit unwritten.

Take a look at these entries with their results.
molecule	targetDesc	Eff. % (%)
CON=C(C)c1cccc(C2CC(c3csc(C4CCN(C(=O)Cn5nc(C(F)(F)F)cc5C)CC4)n3)=NO2)c1 (mixture of isomers)	Plasmopara viticola	97
CS(=O)(=O)Oc1c(F)cccc1C1CC(c2csc(C3CCN(C(=O)Cn4nc(C(F)F)cc4C(F)F)CC3)n2)=NO1 (centres unmarked)	Plasmopara viticola	100
CCON=Cc1ccccc1C1CC(c2csc(C3CCN(C(=O)Cn4nc(C(F)(F)F)cc4C)CC3)n2)=NO1 (mixture of isomers)	Plasmopara viticola	90
CC(=NO)c1cccc(C2CC(c3csc(C4CCN(C(=O)Cn5nc(C(F)F)cc5C(F)F)CC4)n3)=NO2)c1 (mixture of isomers)	Plasmopara viticola	100

Now for a further molecule.
Would you kindly share the measured Eff. % for CON=C(C)c1cccc(C2CC(c3csc(C4CCN(C(=O)Cn5nc(C(F)F)cc5C(F)F)CC4)n3)=NO2)c1 (mixture of isomers) ?
100
